Reported fold change of Tryptamine concentration values for the following compounds.
tested on: Ruminococcus gnavus DSM 108212; test: fold change of Tryptamine concentration vs plate DMSO controls (fold change (ratio)); higher = more amine produced, active = hit call of the paper (significant change in both replicates, either direction); conditions: incubation time: 27 h, anaerobic, 37 °C
Where a name gives a salt, the structure may show the parent alone.
Form: value (number only, do not type unit).

Worked examples, 4 compounds total:
COMPOUND	fold change of Tryptamine concentration
Cc1ccccc1OCC(O)CO (stereo not given) [Mephenesin] (20 µM)	1.04
COC(=O)C1=C(C)NC(C)=C(C(=O)OC(C)C)C1c1cccc2nonc12 (stereo not given) [Isradipine] (20 µM)	1.03
COc1cc2c(cc1OC)C(=O)C(CC1CCN(Cc3ccccc3)CC1)C2 (stereo not given) [Donepezil hydrochloride] (20 µM)	1.03
O=C(O)CN(CCN(CC(=O)O)CC(=O)O)CCN(CC(=O)O)CC(=O)O [Pentetic acid] (20 µM)	1.01

Exercise: Could you share which fold change of Tryptamine concentration value was measured for CN(C)CCC(c1ccc(Cl)cc1)c1ccccn1 (stereo not given) [Chlorpheniramine maleate] (20 µM) ?
Solution: 1.03

Exercise: Repeat for the following compound: CCCCC[C@H](O)/C=C/[C@H]1[C@H](O)CC(=O)[C@@H]1CCCCCCC(=O)O [Alprostadil] (20 µM)
Solution: 0.987

Exercise: Repeat for the following compound: CN(C)CCCOc1nn(Cc2ccccc2)c2ccccc12 [Benzydamine hydrochloride] (20 µM)
Solution: 0.986

Exercise: Repeat for the following compound: CC1(C)OC(=O)NC1=O [Dimethadione] (20 µM)
Solution: 0.747

Exercise: Repeat for the following compound: CC/C(=C(/CC)c1ccc(O)cc1)c1ccc(O)cc1 [Diethylstilbestrol] (20 µM)
Solution: 0.88

Exercise: Repeat for the following compound: CN(C)CCOC(c1ccc(Cl)cc1)c1ccccn1 (stereo not given) [Carbinoxamine maleate salt] (20 µM)
Solution: 1.05

Exercise: Repeat for the following compound: Oc1c(Br)cc(Br)c2cccnc12 [Broxyquinoline] (20 µM)
Solution: 0.562

Exercise: Repeat for the following compound: CO[C@H]1C[C@H](O[C@H]2[C@H](C)[C@@H](O[C@@H]3O[C@H](C)C[C@H](N(C)C)[C@H]3OC(C)=O)[C@@H](C)C[C@@]3(CO3)C(=O)[C@H](C)[C@@H](OC(C)=O)[C@@H](C)[C@@H](C)OC(=O)[C@@H]2C)O[C@@H](C)[C@@H]1OC(C)=O [Troleandomycin] (20 µM)
Solution: 0.676

Exercise: Repeat for the following compound: CN1CCN(CCCN2c3ccccc3Sc3ccc(C(F)(F)F)cc32)CC1 [Trifluoperazine dihydrochloride] (20 µM)
Solution: 0.93

Exercise: Repeat for the following compound: CC1Cc2ccccc2N1NC(=O)c1ccc(Cl)c(S(N)(=O)=O)c1 (stereo not given) [Indapamide] (20 µM)
Solution: 1.01

Exercise: Repeat for the following compound: CC(=O)N(O)CCCCCNC(=O)CCC(=O)N(O)CCCCCNC(=O)CCC(=O)N(O)CCCCCN [Deferoxamine mesylate] (20 µM)
Solution: 1.18

====

Reported fold change of Cadaverine concentration values for the following compounds.
system: Klebsiella aerogenes DSM 30053; test: fold change of Cadaverine concentration vs plate DMSO controls (fold change (ratio)); higher = more amine produced, active = hit call of the paper (significant change in both replicates, either direction); settings: incubation time: 27 h, anaerobic, 37 °C
Form: value (number only, do not type unit).

Worked examples, 3 compounds total:
COMPOUND	fold change of Cadaverine concentration
CN1CCC(=C2c3ccccc3CCc3sccc32)CC1 [Pizotifen malate] (20 µM)	0.994
NC(=O)c1ncn([C@@H]2O[C@H](CO)[C@@H](O)[C@H]2O)c1O [Mizoribine] (20 µM)	1.01
Cn1c(=O)cc(N2CCC[C@@H](N)C2)n(Cc2ccccc2C#N)c1=O [Alogliptin benzoate] (20 µM)	1.01

Exercise: Could you share which fold change of Cadaverine concentration value was measured for O=C1CN(/N=C/c2ccc([N+](=O)[O-])o2)C(=O)N1 [Nitrofurantoin] (20 µM) ?
Solution: 0.997

Exercise: Repeat for the following compound: O=C(O)CCNC(=O)c1ccccc1 [Betamipron] (20 µM)
Solution: 1
